# SYSTEM_NAME: hLigI (Homo sapiens)
# Construct: made in house
# Sequence (P18858 whole entry): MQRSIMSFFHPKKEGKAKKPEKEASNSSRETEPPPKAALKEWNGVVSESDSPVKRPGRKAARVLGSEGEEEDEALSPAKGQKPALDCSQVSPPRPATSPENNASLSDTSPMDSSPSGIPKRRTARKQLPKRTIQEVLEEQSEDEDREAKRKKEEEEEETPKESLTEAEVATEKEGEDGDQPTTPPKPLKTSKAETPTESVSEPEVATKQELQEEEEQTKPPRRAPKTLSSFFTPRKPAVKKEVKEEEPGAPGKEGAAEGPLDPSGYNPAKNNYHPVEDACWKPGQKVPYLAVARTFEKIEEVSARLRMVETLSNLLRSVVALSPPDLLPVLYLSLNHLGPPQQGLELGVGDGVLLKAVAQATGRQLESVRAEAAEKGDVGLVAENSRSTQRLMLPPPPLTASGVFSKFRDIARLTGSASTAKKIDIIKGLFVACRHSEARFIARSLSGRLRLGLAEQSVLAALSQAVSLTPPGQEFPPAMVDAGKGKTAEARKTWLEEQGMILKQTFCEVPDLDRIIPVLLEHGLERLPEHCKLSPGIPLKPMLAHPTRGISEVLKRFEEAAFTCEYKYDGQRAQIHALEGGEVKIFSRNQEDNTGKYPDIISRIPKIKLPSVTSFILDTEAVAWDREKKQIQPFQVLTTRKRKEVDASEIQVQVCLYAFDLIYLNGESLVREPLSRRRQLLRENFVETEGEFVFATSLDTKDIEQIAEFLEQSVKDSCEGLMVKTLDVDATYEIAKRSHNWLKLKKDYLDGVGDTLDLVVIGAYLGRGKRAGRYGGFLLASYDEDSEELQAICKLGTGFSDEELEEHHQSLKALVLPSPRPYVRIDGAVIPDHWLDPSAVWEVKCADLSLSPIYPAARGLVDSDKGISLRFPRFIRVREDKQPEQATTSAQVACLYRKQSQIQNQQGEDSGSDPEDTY
# MEASUREMENT_PROTOCOL: High-throughput fluorescence-based DNA joining (ligation) assay
# Assay type: biochemical
# CONDITION_SET: 100 μM; read-out: In vitro % inhib hLigI 100
# inhibition at 100 µM >= 30% gives condition met, anything below gives condition not met

Example entries begin here.
| COMPOUND | GROUP_LABEL |
| --- | --- |
| O=C(O)c1cnn2c(C(F)(F)F)cc(-c3ccco3)nc12 [Compound 215] | condition not met |
| O=C(Cn1cnc([N+](=O)[O-])n1)N/N=C/c1ccc(O)cc1O [Compound 151] | condition not met |
| N#Cc1cn(CCCCCCCc2[nH]c(=O)[nH]c(=O)c2C#N)c(=O)[nH]c1=O [Compound 209] | condition not met |
| O=C(c1ccc(O)cc1)c1ccccc1O [Compound 200] | condition met |
| O=C(O)Cc1cncc(Br)c1 [Compound 122] | condition not met |

Prompt: Decide: inhibition at 100 µM of CCCCC(=O)c1ccc(O)cc1O [Compound 213] >= 30%?
Completion: condition met

Prompt: Decide: inhibition at 100 µM of COc1ccc(-c2cnc3c(O)nc(O)nc3n2)cc1 [Compound 190] >= 30%?
Completion: condition met

Prompt: Decide: inhibition at 100 µM of Nc1nc(S)nc(O)c1/N=C/c1ccccc1 [Compound 189] >= 30%?
Completion: condition met

Prompt: Decide: inhibition at 100 µM of CSc1ccc(C(=O)O)s1 [Compound 1] >= 30%?
Completion: condition met

Prompt: Decide: inhibition at 100 µM of CCn1nc(N)c2c(O)nc(O)cc21 [Compound 93] >= 30%?
Completion: condition not met

Prompt: Decide: inhibition at 100 µM of O=C1Nc2c(C(=O)O)cccc2C1=O [Compound 25] >= 30%?
Completion: condition met

Reference source: patent US9757375B2
